# tested_system: HAT p300 (histone acetyltransferase p300) (Homo sapiens)
# Sequence (Q09472 whole entry): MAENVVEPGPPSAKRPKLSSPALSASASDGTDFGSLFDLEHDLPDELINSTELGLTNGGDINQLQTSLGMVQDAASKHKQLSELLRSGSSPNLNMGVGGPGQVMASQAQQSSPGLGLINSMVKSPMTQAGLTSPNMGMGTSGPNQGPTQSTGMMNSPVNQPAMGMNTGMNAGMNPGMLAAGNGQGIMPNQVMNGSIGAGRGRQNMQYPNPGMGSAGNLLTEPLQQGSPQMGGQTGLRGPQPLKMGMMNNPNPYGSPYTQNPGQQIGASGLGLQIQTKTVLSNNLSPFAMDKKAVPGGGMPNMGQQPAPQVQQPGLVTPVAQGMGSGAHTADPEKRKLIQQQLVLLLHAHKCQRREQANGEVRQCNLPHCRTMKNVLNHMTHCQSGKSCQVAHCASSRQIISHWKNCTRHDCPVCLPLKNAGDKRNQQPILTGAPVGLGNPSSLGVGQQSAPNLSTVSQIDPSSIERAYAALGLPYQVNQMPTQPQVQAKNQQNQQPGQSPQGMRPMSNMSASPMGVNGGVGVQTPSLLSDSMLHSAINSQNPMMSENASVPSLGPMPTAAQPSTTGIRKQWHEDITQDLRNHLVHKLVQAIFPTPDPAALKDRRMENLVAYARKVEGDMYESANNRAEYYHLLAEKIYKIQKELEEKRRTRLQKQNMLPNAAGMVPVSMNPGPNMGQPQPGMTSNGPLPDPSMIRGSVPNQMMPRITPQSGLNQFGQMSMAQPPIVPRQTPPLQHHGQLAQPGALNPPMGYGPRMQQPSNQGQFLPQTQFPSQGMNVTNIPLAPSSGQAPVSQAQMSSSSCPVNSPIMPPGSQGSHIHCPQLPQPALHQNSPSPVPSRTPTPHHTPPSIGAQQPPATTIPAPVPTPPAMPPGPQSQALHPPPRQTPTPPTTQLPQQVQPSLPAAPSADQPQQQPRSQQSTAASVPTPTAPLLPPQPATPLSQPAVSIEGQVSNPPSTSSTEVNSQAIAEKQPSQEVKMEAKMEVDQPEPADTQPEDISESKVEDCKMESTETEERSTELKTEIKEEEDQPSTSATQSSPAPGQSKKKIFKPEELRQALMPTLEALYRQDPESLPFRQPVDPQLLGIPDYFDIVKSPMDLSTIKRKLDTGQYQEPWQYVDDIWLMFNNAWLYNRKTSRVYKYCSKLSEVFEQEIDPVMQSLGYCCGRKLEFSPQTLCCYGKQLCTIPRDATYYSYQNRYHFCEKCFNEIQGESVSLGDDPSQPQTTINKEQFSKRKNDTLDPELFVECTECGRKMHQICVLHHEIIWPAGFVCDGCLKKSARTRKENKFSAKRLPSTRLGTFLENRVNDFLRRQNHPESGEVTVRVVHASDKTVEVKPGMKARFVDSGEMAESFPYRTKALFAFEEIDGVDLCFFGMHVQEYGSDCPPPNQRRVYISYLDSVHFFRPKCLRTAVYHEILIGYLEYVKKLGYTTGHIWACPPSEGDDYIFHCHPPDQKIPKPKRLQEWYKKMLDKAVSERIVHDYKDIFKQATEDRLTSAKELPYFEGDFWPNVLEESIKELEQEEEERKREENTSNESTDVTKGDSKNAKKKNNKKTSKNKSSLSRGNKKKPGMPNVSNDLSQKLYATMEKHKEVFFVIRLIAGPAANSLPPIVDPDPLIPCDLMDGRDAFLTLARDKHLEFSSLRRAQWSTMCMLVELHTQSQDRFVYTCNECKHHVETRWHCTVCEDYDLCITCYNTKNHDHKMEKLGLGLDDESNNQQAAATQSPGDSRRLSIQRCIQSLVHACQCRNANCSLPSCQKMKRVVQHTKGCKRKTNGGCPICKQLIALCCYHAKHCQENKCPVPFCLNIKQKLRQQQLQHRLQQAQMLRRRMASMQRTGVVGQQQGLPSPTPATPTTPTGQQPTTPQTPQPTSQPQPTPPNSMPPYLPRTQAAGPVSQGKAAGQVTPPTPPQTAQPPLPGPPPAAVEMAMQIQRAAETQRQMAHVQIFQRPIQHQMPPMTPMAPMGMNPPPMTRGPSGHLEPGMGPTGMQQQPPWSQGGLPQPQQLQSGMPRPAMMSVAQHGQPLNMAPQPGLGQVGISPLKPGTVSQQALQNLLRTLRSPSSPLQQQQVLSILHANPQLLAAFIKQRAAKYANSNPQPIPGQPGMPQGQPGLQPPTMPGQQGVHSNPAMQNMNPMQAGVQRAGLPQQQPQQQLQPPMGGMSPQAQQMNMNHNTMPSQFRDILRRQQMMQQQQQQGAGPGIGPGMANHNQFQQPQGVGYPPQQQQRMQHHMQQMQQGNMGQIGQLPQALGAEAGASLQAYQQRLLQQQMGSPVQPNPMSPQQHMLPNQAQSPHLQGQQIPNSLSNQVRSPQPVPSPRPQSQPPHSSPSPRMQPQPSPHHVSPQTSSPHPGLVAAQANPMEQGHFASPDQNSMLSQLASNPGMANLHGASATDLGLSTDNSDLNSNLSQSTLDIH
# protocol_summary: HAT activity kit assay (Biovision K332), inhibition of HAT activity of p300
# Format: biochemical
# condition_summary: secondary screening; tested at 0.5, 1, 10 and 100 μM
measured_property: IC50 (µM)
Note: unit µM is implicit; provide only the numeric part.

Name the reported IC50 value associated with the compound COc1cc(/C=N/CCN2CCCCC2)cc(Cl)c1OCc1cccc(Cl)c1 [Candidate 12]
0.953
